Exercise: state measured melting point for each of the compounds provided.

(Q) May I ask what melting point has been recorded for `CN(C(=O)c1ccccc1)C(=O)c1nc(Cl)c(Cl)[nH]1` ?
(A) 168 °C

(Q) Follow-up item: CCC(C)NC1=NS(=O)(=O)c2sc(C)cc2N1 (configuration not stated)
(A) 224 to 225 °C

(Q) Also `CCCc1nc2c(N)nc3cc(-c4ccccc4)ccc3c2n1CC(C)(C)NS(C)(=O)=O` , if possible.
(A) 135 to 141 °C

(Q) // repeat for `CC(C)(Cc1cccc2ccccc12)NC=O` and report
(A) 79 to 80 °C

(Q) Entry `Cc1cnc(N2CCN(C(=O)OC(C)(C)C)CC2)c2ccoc12` please
(A) 108 °C

(Q) Could you do the same for O=C(O)Cc1ccc2c3c(cccc13)C(c1ccccc1)C2 (configuration not stated) , please?
(A) 200 °C

(Q) Follow-up entry: NCC(O)COc1cccc2ccccc12 (configuration not stated)
(A) 106 °C

----------
Outcome measure: melting point

(Q) Reported melting point for `C#Cc1ccc(Cn2cc(-c3ccc(OC)cc3)ccc2=O)cn1` : what is it?
(A) 273 °C

(Q) What do we get for `CNc1cc(Oc2ccc(NC(=O)Nc3ccc(Br)c(C(F)(F)F)c3)cc2)ncn1` ?
(A) 161 to 164 °C

(Q) How about `COc1ccc(-c2cc(=S)n(C)c(=O)[nH]2)cc1OC` ?
(A) 247 to 249 °C

(Q) Can you check `Cc1nc(N2CCN(C(=O)c3ccco3)CC2)nnc1-c1ccccc1` next?
(A) 142 °C

(Q) Check `O=C(Cn1nccc1-c1ccc(Oc2ccc(F)cc2)cc1)N1CCOCC1` too.
(A) 122 to 124 °C

(Q) Next compound up: `COC1=C(OC)C(=O)C2=C(CCC(CCOc3ccc(F)cc3)CC2)C1=O`
(A) 91 to 93 °C

(Q) Next record, please: `CC(=O)NNC(=O)c1cccc(I)c1`
(A) 156 to 158 °C

(Q) And `COc1ccc(CCNC(=O)C(N)=O)cc1OC` ?
(A) 171 to 172 °C

(Q) Again, but for `CCCCCCCCCCNC(=O)c1ccccc1N(CC(=O)OC)CC(=O)OC`
(A) 35 to 38 °C

(Q) Do the same for `N#CSc1ccc(N)c(C(=O)c2ccccn2)c1` please
(A) 102 to 104 °C

(Q) Also `NS(=O)(=O)c1ccc(-c2cnn(CC(F)(F)F)c(=O)c2Oc2ccc(F)cc2)cc1` , if possible.
(A) 150 to 152 °C

(Q) And then `CCOC(=O)[C@@H](O)[C@@H]1OC(=O)c2cc(OC)c(OS(=O)(=O)c3ccc(C)cc3)cc21` , what is it?
(A) 107 to 108 °C

(Q) Input `Cc1cccc(C)c1C#CCOCCn1cnc2c(N)nc3ccccc3c21`
(A) 200 to 201 °C

(Q) And `Cc1ccc(-c2c3ccccc3nn2Cc2ccccc2)cc1` ?
(A) 111 °C

(Q) Same for Fc1ccc(Cn2c(NC3CCN(CCNc4nccs4)C3)nc3ccccc32)cc1 (configuration not stated)
(A) 127 °C

(Q) Also `Oc1c(C2CCCC2)cc(CSCc2cc(C3CCCC3)c(O)c(C3CCCC3)c2)cc1C1CCCC1` , if possible.
(A) 149 to 150 °C

(Q) Here is the next compound: `CCCN(CC)Cc1nc2cc(OC)c(OC)cc2c(-c2ccc(OC)c(OC)c2)c1C(=O)OCC`
(A) 105 to 106 °C

(Q) Subsequent entry: `CCCCNc1cc(-c2ccccc2)nc2onc(C)c12`
(A) 126 to 127 °C

(Q) Please answer likewise for `O=C(NOC(=O)c1ccc(Cl)cc1)OCc1ccccc1`
(A) 97 °C

(Q) Also check CCN(CC)CCC(=O)OCC1CC(c2ccc(-c3ccc(N4CC(Cn5ccnn5)OC4=O)cc3F)cn2)=NO1 (configuration not stated)
(A) 167 °C

(Q) Input `CCOC(=O)Nc1ccc(C2CCN(C(=O)OCC)CC2)cc1`
(A) 105 to 107 °C

(Q) Okay, and `CN(C(=O)c1ccc(Cn2cnc3c(Cl)nc(Cl)nc32)cc1)C1CCCCC1` ?
(A) 134 to 136 °C

----------
I'd appreciate it if you could supply melting point values for the items below.

(Q) Quick one: melting point of O=C(NC1CCN(CC(O)c2ccccc2)CC1)c1ccccc1 (stereo unspecified) ?
(A) 178 to 180 °C

(Q) // same read-out, input: CC(=O)SCC(C(=O)N[C@@H](Cc1c[nH]c2ccccc12)C(=O)O)C(F)(F)F (stereo partly specified)
(A) 140 to 143 °C

(Q) Next record, please: `C=C(c1cc(C(C)(C)C)cc2c1CCC2(C)C)c1sccc1C(=O)O`
(A) 148 to 150 °C

(Q) Now consider `Cc1ccccc1Cc1cccnn1` .
(A) 88 to 89 °C

(Q) What would you report for `CCCCc1cn(CCCC)c(=O)n1Cc1ccc(-c2ccccc2-c2nnn[nH]2)nc1` ?
(A) 170 to 171 °C

(Q) // same read-out, input: `COc1c(C2CCN(CCCCNC(=O)c3ccc(-c4ccc(C#N)cc4)nc3)CC2)ccc2c1CCCC2`
(A) 166 to 168 °C

----------
What melting point was measured for each of the following?

(Q) Form field: reported melting point of CCCc1nn(C)c2c(=O)[nH]c(-c3cc(C(O)CN4CCNCC4)ccc3OCC)nc12 (stereo not drawn)
(A) 130 to 140 °C

(Q) Another compound to check: `CCCCCCC[C@H](CC(=O)OC(C)(C)C)C(=O)N1C(=O)OC[C@@H]1C(C)C`
(A) 49 to 51 °C

(Q) Another compound to look at: CC(CN1C(=O)C2(COc3cc4c(cc32)CCO4)c2ccccc21)OCc1ccc(F)cc1 (stereo not drawn)
(A) 55 to 60 °C

(Q) Next compound up: `O=C(O)/C=C/C#Cc1cccc(S(=O)(=O)Nc2ccccc2)c1`
(A) 188 to 190 °C

(Q) Now this one: `O=C1c2ccccc2-n2cnc(C=NO)c2[C@@H]2CCCN12`
(A) 285 °C

(Q) Here is the next compound: `N#CC1(c2ccc([N+](=O)[O-])cc2)CCCC1`
(A) 76 to 77 °C

(Q) Further, for `Cc1ccccc1-c1nc2n(c1Br)-c1cccnc1Nc1ccccc1-2` ?
(A) 220 to 222 °C

(Q) What do we get for `CN1CCCC1=NCCSc1cc2ccccc2[nH]1` ?
(A) 175 to 177 °C

(Q) Next record, please: `CCOC(=O)NC(=O)C(C#N)=CNc1cccc(F)c1`
(A) 170 to 171 °C

(Q) Please do the same for `O=C(NC(=O)c1ccccc1Cl)Nc1cc(Cl)c2c(c1)C(F)(F)C(F)(F)S2` as well.
(A) 140 to 142 °C

(Q) What do we get for `O=CNCc1ccc(CN2CCN(c3ncccn3)CC2)cc1` ?
(A) 97 to 98 °C

(Q) Consider next the compound `CN1c2ccccc2N(C(=O)CN2CCCC2)c2ccccc2S1(=O)=O` in the same way.
(A) 175 to 177 °C

(Q) Now consider `COc1ccc(Cn2cnc3c(-c4ccco4)nc(-c4ccccc4)nc32)cc1` .
(A) 140 to 142 °C

----------
Would you mind telling me the reported melting point of each entry?

(Q) I'd like to know its melting point. The compound in question is `NS(=O)(=O)c1ccc(-c2cnn(Cc3cccc(F)c3)c(=O)c2-c2ccc(F)cc2)cc1`
(A) 220 to 222 °C

(Q) Next record, please: `CCCOc1ccc(NC=C(C(=O)OCC)C(=O)OCC)nc1C`
(A) 116 to 118 °C

(Q) Request: `CCOC(=N)c1c(O)ccc2ccccc12`
(A) 145 to 146 °C

(Q) Could you do the same for `CCCOc1cc(Oc2ccc(C(F)(F)F)cn2)ccc1CCCOc1c(CC(=O)O)cccc1OC` , please?
(A) 78 to 79 °C

----------
Outcome measure: melting point

(Q) Any idea what melting point was measured for CCCC12CCC(=O)C=C1c1c(cc(OCC(=O)O)c(Cl)c1Cl)C2O (configuration not stated) ?
(A) 206 to 208 °C

(Q) Please give the result for COc1ccc(C2=Cc3ccc(OCc4ccccc4)cc3OC2O)cc1 (configuration not stated) too.
(A) 138 to 139 °C

(Q) # repeat for `CS(=O)(=O)c1ccc(-c2cnn(C3CCCCC3)c(=O)c2-c2ccc(F)cc2)cc1`
(A) 169 to 171 °C

(Q) `O=c1[nH]c2nc3ccccc3n2c(=O)n1C1CCCCC1` ?
(A) 335 °C

(Q) And `Cc1ccc2c(c1)CCC1=C2CCC(=O)N1` ?
(A) 204 to 205 °C

(Q) Subsequent entry: CCC(O)(C(N)=O)c1cc(C(F)(F)F)cc(C(F)(F)F)c1 (configuration not stated)
(A) 128 to 129 °C

(Q) Further, for `O=C(O)c1ccc(S(=O)(=O)Nc2ccc(F)c(C(F)(F)F)c2)cc1` ?
(A) 238 to 241 °C
